I'd appreciate it if you could supply inhibition at 0.1 µM values for the items below.
# Assay system: rat adrenergic α1A receptor (Rattus norvegicus)
# Construct: rat adrenergic α1A receptor obtained from Wistar Rat submaxillary glands; from tissue; host or cells: Wistar rat submaxillary glands
# Sequence (P43140 1-466): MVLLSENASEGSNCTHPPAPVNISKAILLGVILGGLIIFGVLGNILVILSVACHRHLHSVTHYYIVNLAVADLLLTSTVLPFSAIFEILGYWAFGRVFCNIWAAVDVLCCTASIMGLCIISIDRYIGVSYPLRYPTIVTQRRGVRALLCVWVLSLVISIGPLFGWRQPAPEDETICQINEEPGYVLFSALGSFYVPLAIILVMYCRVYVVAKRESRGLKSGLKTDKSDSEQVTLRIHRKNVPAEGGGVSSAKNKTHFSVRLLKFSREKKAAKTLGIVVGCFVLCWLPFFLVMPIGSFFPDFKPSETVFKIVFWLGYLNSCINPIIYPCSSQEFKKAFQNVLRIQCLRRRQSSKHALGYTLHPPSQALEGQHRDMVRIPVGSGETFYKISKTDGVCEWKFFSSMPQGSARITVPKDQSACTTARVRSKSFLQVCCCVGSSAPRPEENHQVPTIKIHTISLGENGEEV
# Procedure summary: Adrenergic α1A radioligand binding ([3H]Prazosin)
# Measurement context: read-out: Adrenergic (0.1 μM) a1A, percent inhibition of specific binding; compound at 0.1 μM; 0.25 nM [3H]Prazosin
# value in %; strip the unit string

Using known records, supply inhibition at 0.1 µM for Cc1ccc2c(c1)c1c(n2-c2ccccc2-c2cccc3[nH]ncc23)CCN(C)C1 [Compound No. 105]
55

Using known records, supply inhibition at 0.1 µM for Cc1ccc2c(c1)c1c(n2-c2ccc(-c3ccc(F)cc3)cn2)CCN(C)C1 [Compound No. 140]
31

Using known records, supply inhibition at 0.1 µM for Cc1ccc2c(c1)c1c(n2-c2ccc(-c3sccc3C)cn2)CCN(C)C1 [Compound No. 148]
20

Using known records, supply inhibition at 0.1 µM for Cc1csc(-c2ccc(-n3c4c(c5cc(C)ccc53)CN(C)CC4)nc2)c1 [Compound No. 144]
27

Using known records, supply inhibition at 0.1 µM for Cc1ccc2c(c1)c1c(n2-c2cccc(-c3ccc(C)nc3)c2)CCN(C)C1 [Compound 60]
-2

Using known records, supply inhibition at 0.1 µM for Cc1ccc2c(c1)c1c(n2-c2cccc(-c3ccc(C)s3)c2)CCN(C)C1 [Compound No. 64]
-8

Using known records, supply inhibition at 0.1 µM for Cc1ccc2c(c1)c1c(n2-c2cccc(-c3cnc(N(C)C)nc3)c2)CCN(C)C1 [Compound 42]
9

Using known records, supply inhibition at 0.1 µM for CC(=O)Nc1ccc(-c2ccccc2-n2c3c(c4cc(C)ccc42)CN(C)CC3)cn1 [Compound No. 83]
23

Using known records, supply inhibition at 0.1 µM for Cc1cc(C)c2c(c1)c1c(n2-c2ccc3ncccc3c2)CCN(C)C1 [Compound 48]
-6

Using known records, supply inhibition at 0.1 µM for Cc1ccc2c(c1)c1c(n2-c2cccc(-c3ccnn3C)c2)CCN(C)C1 [Compound No. 66]
1

Using known records, supply inhibition at 0.1 µM for Cc1ccc2c(c1)c1c(n2-c2ccc3nc(C)ccc3c2)CCN(C)C1 [Compound No. 157]
7

Using known records, supply inhibition at 0.1 µM for CNC(=O)c1ccc(-c2ccccc2-n2c3c(c4cc(C)ccc42)CN(C)CC3)cn1 [Compound No. 71]
65

Using known records, supply inhibition at 0.1 µM for Cc1ccc2c(c1)c1c(n2-c2ccoc2)CCN(C)C1 [Compound 15]
28

Using known records, supply inhibition at 0.1 µM for COc1ccc(-c2cscc2-n2c3c(c4cc(C)ccc42)CN(C)CC3)cc1 [Compound 37]
82

Using known records, supply inhibition at 0.1 µM for Cc1cc(C)c2c(c1)c1c(n2-c2cscc2-c2ccncc2)CCN(C)C1 [Compound No. 149]
14

Using known records, supply inhibition at 0.1 µM for CC(=O)Nc1ccc(-c2cccc(-n3c4c(c5cc(C)ccc53)CN(C)CC4)c2)cn1 [Compound 45]
13

Using known records, supply inhibition at 0.1 µM for CNC(=O)c1ccc(-c2ccccc2-n2c3c(c4cc(C)ccc42)CN(C)CC3)cc1 [Compound No. 72]
36
